system: S. aureus MSSA476; construct: MSSA476; design: species or system S. aureus MSSA476 (TSB) or V. cholerae SAD30 (LB); 384-well bacterial growth screen at 25 uM, OD600 relative to DMSO control; conditions: relative growth, OD600, TSB; 25 µM; inhibitor
In all, about 3,200 compounds went through this assay and about 75 (2%) showed an effect of 50% or more. Only a selection was taken, and strong results are over-represented in it overall.
Reported Metric: % of control remaining

[
  {
    "Compound": "Cc1csc(-n2c(C)cc(C(=O)CCl)c2C)n1",
    "% of control remaining": "121.563%"
  }
]

Note to self: % of control remaining of CC(=O)NCc1ccc(C2CCCN2C(=O)CCl)o1 (centres unmarked) with S. aureus MSSA476 was 100.182%

S. aureus MSSA476 assay, compound "C=CC(=O)N1CCC(C(=O)Nc2cccc(NC(=O)C(C)C)c2)CC1" , recorded % of control remaining = 95.0805%

The recorded % of control remaining with S. aureus MSSA476 for "O=C1C=CC(=O)N1c1cccc(O)c1" was 125.313%

Value sought: % of control remaining, system S. aureus MSSA476, item CCc1ccccc1NC(=O)CN(C)C(=O)C(C)Cl (centres unmarked) . Result: 90.7099%

// assay S. aureus MSSA476, entry "Cc1cc(C(=O)CCl)c(C)n1-c1cc(Cl)cc(Cl)c1" , % of control remaining value = 0%

Reading of % of control remaining for "CCOc1ccc(N2C(=O)C=CC2=O)cc1" with S. aureus MSSA476: 141.563%

Record for "COc1ccc(-n2c(C)cc(C(=O)CCl)c2C)cc1" under target or system S. aureus MSSA476: % of control remaining reported as 127.813%

Entry "CCOc1ccc(-n2c(C)cc(C(=O)CCl)c2C)cc1" , tested on S. aureus MSSA476, has a reported % of control remaining of 38.75%

The reported S. aureus MSSA476 % of control remaining of "O=C1CCCc2cc(C(=O)CCl)ccc2N1" is 137.5%

Record Cc1cc(C(=O)CCl)c(C)n1C(C)c1ccccc1 (centres unmarked) / S. aureus MSSA476, % of control remaining recorded as 101.563%
